# ASSAY_OVERVIEW: NCI Yeast Anticancer Drug Screen. Data for the sgs1 mgt1 strain (AID 161);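 further: 0% = growth of cultures given vehicle only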
# PARTICULARS: S. cerevisiae sgs1 mgt1 strain, at 50.0 µM, active compounds read high
Compounds without any hit were thinned out: in the full panel of roughly 79,000, 15% have a hit.
OBSERVATION_TYPE: growth inhibition (%)
Answer format: numeric, % implied, no suffix.

Consider the reported growth inhibition for these compounds:
- COMPOUND: "Nc1ccc[nH]c1=O"
  MEASUREMENT_UNIT: "%"
  growth inhibition: 19.6
- COMPOUND: "CC(C)C1SCC(=O)N1c1nncs1 (stereo not drawn)"
  MEASUREMENT_UNIT: "%"
  growth inhibition: 9.15
- COMPOUND: "O=c1[nH]c(-c2ccc(-c3nc4cc([N+](=O)[O-])ccc4c(=O)[nH]3)cc2)nc2cc([N+](=O)[O-])ccc12"
  MEASUREMENT_UNIT: "%"
  growth inhibition: -26.7
- COMPOUND: "COc1ccc(/C=N/Nc2ccc(S(=O)(=O)O)cc2)cc1"
  MEASUREMENT_UNIT: "%"
  growth inhibition: -18.7
- COMPOUND: "C1CC2CC1CC2C1CO1 (stereo not drawn)"
  MEASUREMENT_UNIT: "%"
  growth inhibition: 4.85

Q) Requested field: growth inhibition. Item: CC(C)COC1CN=NN1/C=C1\CCOC1=O (stereo not drawn)
A) 14.3

Q) Ok, now CN(C)c1ccc(SSc2ccc(N(C)C)cc2)cc1
A) 3.2

Q) Ok, now O=C1/C(=C/c2ccc(F)cc2)CC/C1=C\c1ccc(F)cc1
A) -2.85

Origin of measurements: PubChem BioAssay (NCI)
